Values from PubChem BioAssay

Test: 384-well plate pilot, post-Golgi transport modulator project, inhibition of yeast transport mutant growth (AID 636)
Conditions: absorbance 615 nm, about 18 h, stronger effect = higher value
Examples of compounds with documented inhibition follow.
Quantity kind: inhibition (%)

Compound: CCc1cc2c(CN3CCN(CCO)CC3)cc(=O)oc2cc1O
Reported measurement: -2.53

Compound: CCCCOc1ccc(CSc2n[nH]c(C)n2)cc1
Reported measurement: -1.22

Compound: CCCC(C)C(=O)Nc1ccc(C(N)=O)cc1 (centres undefined)
Reported measurement: -5.81

Compound: COc1cccc(OCc2nc3ccccc3[nH]2)c1
Reported measurement: -0.51

Compound: COc1cc(-c2c(C#N)c(N)nc3c2CCCC3)cc(OC)c1OC
Reported measurement: -2.63

Compound: O=C(NCN1CCCCC1)c1cnccn1
Reported measurement: -2.47

Compound: CCCn1c2c(c(O)c(C(=O)Nc3ccc(C)cn3)c1=O)CCCC2
Reported measurement: -2.89

Compound: CCOC(=O)c1c(NC(=O)c2cccs2)sc2c1CCN(C(=O)OCC)C2
Reported measurement: 0.39

Compound: CC12CCC(C(=O)N3CCCCC3)(CC1=O)C2(C)C (centres undefined)
Reported measurement: -3.08

Compound: CN(C)C(CN1C(=O)C2CC=CCC2C1=O)c1cn(C)c2ccccc12 (centres undefined)
Reported measurement: -6.71

Compound: Cn1c(SCc2nc3ccccc3c(=O)[nH]2)nnc1-c1ccco1
Reported measurement: -7.84

Compound: COc1cccc2cc(C(=O)N3CCN(C45CC6CC(CC(C6)C4)C5)CC3)c(=O)oc12
Reported measurement: -3.16

Compound: COc1cccc(CN(C)CC(=O)NC(=O)NCc2ccco2)c1
Reported measurement: 0.92

Compound: COc1ccc2cc(C(=O)NCc3ccco3)c(=Nc3ccc(C(=O)O)cc3)oc2c1
Reported measurement: -5

Compound: CC(C)(CO)NC(=O)CCCOc1ccc(Cl)cc1Cl
Reported measurement: -0.26

Compound: CCCN1C(=O)SC(CC(=O)Nc2ccc(Br)cc2)C1=O (centres undefined)
Reported measurement: -2.24

Compound: COc1ccccc1CN1C(=S)SC(C)(C)C1NO (centres undefined)
Reported measurement: -3.73

Compound: O=C(c1cc2n(n1)C(C(F)(F)F)CC(c1ccc(Cl)cc1)N2)N1CCCC1 (centres undefined)
Reported measurement: -6.84

Compound: Cc1[nH]c(=O)[nH]c(=O)c1S(=O)(=O)N1CCN(c2cccc(Cl)c2)CC1
Reported measurement: 3.95

Compound: CCOC(=O)C1CCCN(CCC(C)c2ccccc2)C1 (centres undefined)
Reported measurement: -6.8

Compound: CCC(Sc1ncccc1C(=O)O)C(=O)N1CCCC1 (centres undefined)
Reported measurement: 2.47

Compound: CCOC(=O)N1CCC(O)(c2cc(C)c(C)cc2C)CC1
Reported measurement: -4.19

Compound: Cn1c(SCC(N)=O)nnc1C1CCN(S(=O)(=O)c2ccccc2C(F)(F)F)CC1
Reported measurement: -7.03

Compound: CCc1ccccc1NC(=O)C(C#N)Cc1cccnc1 (centres undefined)
Reported measurement: -2.57

* * *

Experiment: SK-BR-3 cell growth inhibitors, pilot screen, 24 h, human (AID 572);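 further: compound exposure lasted between 18 and 24 h rather than exactly 24 h; 100% = carrier-treated control wells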
Details: SK-BR-3 viability, CellTiter-Glo luminescence, at 10 µM, stronger effect = lower value
The source made the active and inactive calls.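 How the source made its calls: active means viability at or below 10% of carrier control in both of two separate runs; inconclusive means viability at or below 10% in only one of the two runs; inactive means the rest.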
Examples of compounds with documented viability follow.

Compound: O=C(O)c1c(Cl)c(Cl)c(Cl)c(Cl)c1C(=O)N1CCOCC1
viability: 109% (inactive)

Compound: O=C(CN1CCC(NC(=O)c2ccc(F)cc2)CC1)NCc1ccccc1F
viability: 96.5% (inactive)

Compound: COc1cccc(C(=O)n2cnnc2N)c1OC
viability: 120% (inactive)

Compound: COC(=O)c1ccccc1NC(=O)C1CC(=O)N(c2ccccc2)C1 (stereo unspecified)
viability: 122% (inactive)

Compound: COc1ccc(S(=O)(=O)N2CCN(C3CCCCCCC3)CC2)cc1
viability: 87.5% (inactive)

Compound: O=C1CC(N2CCN(c3cccc(C(F)(F)F)c3)CC2)C(=O)N1c1ccccc1 (stereo unspecified)
viability: 93.5% (inactive)

Compound: COc1ccc2c(c1)C(=NO)c1cc(OC)ccc1-2
viability: 120% (inactive)

Compound: O=C(O)c1[nH]nc2c1COc1ccccc1-2
viability: 93.5% (inactive)

Compound: CC1CCN(CCCNC(=O)c2cn(C)c3ccc(S(=O)(=O)N4CCCC4)cc3c2=O)CC1
viability: 90.5% (inactive)

Compound: CCOC(=O)/C(C#N)=C1\Nc2ccccc2N=C1N(CC(C)C)CC(C)C
viability: 80% (inactive)

Compound: COc1cccc(NC(=O)CN2CCN(c3ccccc3F)CC2)c1
viability: 90% (inactive)

* * *

Test: reversal of MRP1-mediated doxorubicin resistance, pilot screen, H69AR cells, doxorubicin co-treatment (AID 601)
Settings: H69AR cells + 2 uM doxorubicin, CellTiter-Glo, 72 h; at 10 µM; stronger effect = higher value
Quantity kind: differential viability (reversal) (%)

Molecule: Cc1cc(NC(=O)CN2CCC(O)(c3cccc(F)c3)CC2)no1
Reported measurement: 22.5
//
Molecule: CCOC(=O)CNS(=O)(=O)c1c(C)noc1C
Reported measurement: 20.6
//
Molecule: COc1ccc2c(c1OC)C(=O)OC2Nn1cncn1 (configuration not stated)
Reported measurement: 3.5
//
Molecule: N#Cc1c(/N=C/c2cccs2)sc2c1CCCCC2
Reported measurement: 16.3
//
Molecule: CCn1cc(C(=O)N2CCCC2)c(=O)c2cc(S(=O)(=O)N3CCOCC3)ccc21
Reported measurement: 1.21
//
Molecule: O=C(NCC(c1cccnc1)N1CCN(c2ccc(F)cc2)CC1)c1ccc(F)cc1 (configuration not stated)
Reported measurement: 1.7
//
Molecule: O=C1CN(Cc2ccccc2)C(=NCc2ccco2)S1
Reported measurement: 4.9
//
Molecule: Cc1cc(=O)oc2ccc(OCC(=O)N3CCC(C)CC3)cc12
Reported measurement: 5.65
//
Molecule: O=C(NCC1COCCO1)C1CCN(S(=O)(=O)c2ccccc2)CC1 (configuration not stated)
Reported measurement: 10.3
//
Molecule: Cc1cc(NC(=O)COc2cccc(Oc3ccccc3)c2)no1
Reported measurement: -38.2
//
Molecule: Cc1ccccc1NS(=O)(=O)c1cc(S(C)(=O)=O)ccc1Cl
Reported measurement: 3.12
//
Molecule: O=C(C1CC1)N(Cc1ccco1)c1nc(-c2ccccc2)cs1
Reported measurement: 1.75
//
Molecule: CCc1nnc2c3cnn(-c4ccccc4)c3ncn12
Reported measurement: 15.1
//
Molecule: CCN(CC)CCOc1cccc(C(C)C)c1
Reported measurement: 17.4
//
Molecule: CC1(C)COCN1S(=O)(=O)c1ccc(C(=O)Nc2nnc(-c3ccc(Cl)s3)o2)cc1
Reported measurement: -18.8
//
Molecule: CCC(=O)N1CCc2cc(S(=O)(=O)CCC(=O)Nc3ccc(F)c(F)c3)ccc21
Reported measurement: 10.2
//
Molecule: CCOc1cc(C)c(Cl)cc1S(=O)(=O)N(C)C
Reported measurement: 8.76
//
Molecule: O=C(CNS(=O)(=O)c1ccc(Br)s1)N1CCN(c2ncccn2)CC1
Reported measurement: -4.04
//
Molecule: O=C(Cn1ccc2ccccc2c1=O)Nc1ccc2c(c1)OCO2
Reported measurement: 14.8
//
Molecule: COC(=O)CCSCc1cn2cc(Cl)ccc2n1
Reported measurement: 1.26
//
Molecule: Cc1ncoc1C(=O)Nc1cccc(Cl)c1C
Reported measurement: 15.6
//
Molecule: CC(C)(C)NCc1cc2ccccc2[nH]c1=O
Reported measurement: 9.9
//
Molecule: CCOC(=O)c1cccc(NC(=O)CSc2nnc(C3CCCCC3)n2C)c1
Reported measurement: 6.58
//
Molecule: Cc1c(Cl)cnc(NC(=O)COC(=O)C(NC(=O)c2ccco2)C(C)C)c1Cl (configuration not stated)
Reported measurement: 10.7
//
Molecule: CCc1cccc2c(=O)c(C(=O)NCCN3CCOCC3)c[nH]c12
Reported measurement: 18.2
//
Molecule: CC(=O)c1cc2c(=O)c3cc(C)ccc3oc2nc1C
Reported measurement: -7.35
//
Molecule: C=CCc1cc(C(=O)N2CCCCC2)ccc1O
Reported measurement: -15.2
//
Molecule: COc1ccc(C(=O)Cn2c(N3CCCCC3)nc3c2c(=O)n(C)c(=O)n3C)cc1OC
Reported measurement: -6.42
//
Molecule: N#Cc1c(N)c(C(=O)c2ccccc2)n2c1CCCC2
Reported measurement: -6.13
//
Molecule: Cc1ccc(C(=O)N2CCN(C(=O)c3ccc(C)c(C)c3)C(C)C2)cc1C (configuration not stated)
Reported measurement: 12.2
//
Molecule: CCCCC(=O)Nc1nn(CCC)c2nc3ccccc3cc12
Reported measurement: -5.81
//
Molecule: CCC(=O)N1CCc2cc(S(=O)(=O)CCC(=O)Nc3c(C)n(C)n(-c4ccccc4)c3=O)ccc21
Reported measurement: 6.7
//
Molecule: O=C(CSc1nnc(Cn2cnc3ccccc32)o1)c1ccccc1
Reported measurement: -9.91
//
Molecule: CC1(C(=O)CSc2nc3ccccc3s2)CCC(=O)O1 (configuration not stated)
Reported measurement: 3.12
//
Molecule: O=C(c1ccc(-c2cccc(C(F)(F)F)c2)o1)N1CCOCC1
Reported measurement: 16.1
//
Molecule: COc1ccccc1-c1noc(-c2cccnc2)n1
Reported measurement: 0.91
//
Molecule: O=c1[nH]c(/C(=N\O)c2ccccc2)no1
Reported measurement: 32.5
//
Molecule: O=C(c1ccc(Cl)cc1)N1CCCCC(Sc2nnc(-c3ccc4c(c3)OCO4)o2)C1=O (configuration not stated)
Reported measurement: -3.4
//
Molecule: CC1C(c2ccccc2)N(C)CCC12NC(=O)NC2=O (configuration not stated)
Reported measurement: 13
//
Molecule: N[C@@H](Cc1ccccc1)c1nnc2sc(SCc3ccccc3)nn12
Reported measurement: 11.5
//
Molecule: Cc1ccc2cc(CN(CC3CCCO3)S(=O)(=O)c3ccc4c(c3)OCCO4)c(=O)[nH]c2c1C (configuration not stated)
Reported measurement: 3.25
//
Molecule: COCCN(C(=O)c1csnn1)C(C(=O)NC1CCCCC1)c1cccs1 (configuration not stated)
Reported measurement: 11
//
Molecule: COc1cc(NC(=O)NC(C)(C(F)(F)F)C(F)(F)F)cc(OC)c1OC
Reported measurement: -2.39
//
Molecule: Cc1csc(SCC(=O)NC(=O)NCc2ccccc2)n1
Reported measurement: -0.125
//
Molecule: Cc1nc2ccc(CCO)cc2s1
Reported measurement: -0.945
//
Molecule: Cn1nnnc1SCSc1nnnn1C
Reported measurement: 7.5
//
Molecule: Cc1ncc(CSc2nc3ccccc3[nH]2)c(N)n1
Reported measurement: 16.8
